Biological target: T1, SARS-CoV2 Spike ecto foldon Trimer expressed with a C-terminal myc-myc-hexahistidine (SARS-CoV-2, UniProt P0DTC2 14-1213)
T1 construct: extracellular domain
Experiment: SPR Biacore, mAb captured by anti-hFc, 37C
measure: kon (M⁻¹ s⁻¹)

INSERT INTO measurements (binder, measure, numericvalue) VALUES
  ('mAb14283 (antibody, V domains shown) VH: QVQLQESGPGLVKPSGTLSLTCDVSGGSISSNNWWSWVRQRPGKGLQWIGEIYHNENTNYNPSLKSRVIMSIDKSKNQFSLKLTSVTAADTAVYYCARGDVLDWFDPWGQGTLVTVSS VL: QSALTQPASVSGSPGQSTTISCTGTSSDVGGYNYVSWYQQYPGKAPKLMIYDVTNRPSGVSHRFSGSKSGNTASLTISGLQAEDEADYYCSSYTSSSTVIFGGGTKLTVLG', 'kon', 865000),
  ('mAb14230 (antibody, V domains shown) VH: EVQLVESGGGLIQPGRSLRLSCAASGFTFDDYAMHWVRQAPGKGLEWVSGISWNSVSIDYADSVKGRFTISRDNAKNSLYLQMTSLTVEDTALYYCAKAFGYETLTGSDYFAYWGPGTLVTVSS VL: EIVLTQSPGTLSLSPGERATLSCRASQTVISTYLAWYQQKPGQSPRLLIYGASSRATGIPDRFSGSGSGTDFTLTISRLEPEDFAVYYCQQYGSSPQLTFGGGTKVEIKR', 'kon', 906000),
  ('mAb14258 (antibody, V domains shown) VH: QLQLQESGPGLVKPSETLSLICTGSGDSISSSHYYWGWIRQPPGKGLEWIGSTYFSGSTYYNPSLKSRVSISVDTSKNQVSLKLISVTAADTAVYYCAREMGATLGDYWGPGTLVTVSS VL: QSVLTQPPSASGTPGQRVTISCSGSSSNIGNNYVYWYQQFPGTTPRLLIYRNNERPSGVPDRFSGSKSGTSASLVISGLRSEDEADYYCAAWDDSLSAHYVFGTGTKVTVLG', 'kon', '1.02e+06');

Values from patent US20260069689A1
